Could you please report measured CC50 at 3 days for the items listed next?
Experiment: in vitro
Assay type: cell-based
Conditions: human
Give bare numbers, in µM.

Please give CC50 at 3 days for each item listed below.
1. C[C@@H]1c2ccccc2CCN1C(=O)c1cc(C2CC2)c2cc(-c3ccc([C@H]4C[C@@H]4C(=O)O)cc3F)[nH]c2c1
2. C[C@@H]1c2ccccc2CCN1C(=O)c1cc(C2CC2)c2nc(-c3ccc(N4CC[C@H](C(=O)O)C4)cc3F)oc2c1
3. C[C@@H]1c2ccccc2CCN1C(=O)c1cc(C2CC2)c2nn(-c3ccc(NC(=O)N4CC[C@@H](O)C4)cc3F)cc2n1
4. C[C@@H]1c2ccccc2CCN1C(=O)c1cc(C2CC2)c2nc(-c3ccc(NC(=O)N4CC[C@@H](O)C4)cc3F)sc2c1

Reply |
1: 20.9; 2: 51.5; 3: 47.6; 4: 54

###

Assay: in vitro
Format: cell-based
Conditions: human
quantity_kind: CC50 at 3 days (µM)
Answers are plain numbers, in µM.

Solved entries:
                                   compound   quantity_kind   val
0  C[C@@H]1c2ccccc2CCN1C(=O)c1cc(C2CC2)c2nc(-c3ccc(N4CC[C@H](C(N)=O)C4)cc3F)oc2c1  CC50 at 3 days  54.8
1  C[C@@H]1c2ccccc2CCN1C(=O)c1cc(C2CC2)c2nc(-c3ccc(C4CC4C(=O)O)cc3F)n(C)c2n1 (stereo in doubt)  CC50 at 3 days  76.8
2  C[C@@H]1c2ccccc2CCN1C(=O)c1cc(C2CC2)c2nn(-c3ccc(NC(=O)N4CC[C@H](O)C4)cc3F)cc2c1  CC50 at 3 days  54.4

Please give CC50 at 3 days for each item listed below.
1. C[C@@H]1c2ccccc2CCN1C(=O)c1cc(C2CC2)c2nc(-c3ccc(N4CC[C@H](C(=O)O)C4)cc3F)n(C)c2c1
2. C[C@@H]1c2ccccc2CCN1C(=O)c1cc(C2CC2)c2nc(-c3ccc(N4CC[C@H](C(N)=O)C4)cc3F)n(C)c2c1

Reply |
65.3
39.6

###

Assay: in vitro
Format: cell-based
Settings: human
I'd be grateful if you could share measured CC50 at 3 days for these entries.
Give bare numbers, in µM.

>>> print(df.to_string())
                            compound_string   val
0  C[C@@H]1c2ccccc2CCN1C(=O)c1cc(C2CC2)c2nc(-c3ccc(NC(=O)N4CC[C@@H](O)C4)cc3F)oc2c1  47.8
1  C[C@@H]1c2ccccc2CCN1C(=O)c1cc(C2CC2)c2nc(-c3ccc(NC(=O)N4CC[C@@H](O)C4)cc3F)n(C)c2c1  51.6

Turning now to a further record.
Ask | For C[C@@H]1c2ccccc2CCN1C(=O)c1cc(C2CC2)c2cc(-c3ccc(N4C[C@H](O)[C@@H](O)C4)cc3F)sc2n1 , what is its reported CC50 at 3 days?
Reply | 14.3

###

Experiment: in vitro
Assay type: cell-based
Settings: human
Binary label based on CC50 at 3 days with cut-off 20 µM: below gives criterion met, not below gives criterion not met.

Answered cases to consult:
In [3]: df
Out[3]:
                            compound_string        class_label
0  C[C@@H]1c2ccccc2CCN1C(=O)c1cc(C2CC2)c2cc(-c3ccc(N4CC[C@@H](C(=O)O)C4)cc3F)n(C)c2c1  criterion not met
1  C[C@@H]1c2ccccc2CCN1C(=O)c1cc(C2CC2)c2nc(-c3ccc(N4CC[C@H](C(=O)O)C4)cc3F)n(C)c2n1  criterion not met
2  C[C@@H]1c2ccccc2CCN1C(=O)c1cc(C2CC2)c2cc(-c3ccc([C@H]4C[C@@H]4C(=O)O)cc3F)n(C)c2c1  criterion not met
3  C[C@@H]1c2ccccc2CCN1C(=O)c1cc(-c2ccccc2)c2cn(-c3ccc(N4C[C@H](O)[C@@H](O)C4)cc3F)nc2c1      criterion met
4  CCc1cc(C(=O)N2CCc3ccccc3[C@H]2C)cc2cc(-c3ccc(N4C[C@H](O)[C@@H](O)C4)cc3F)oc12  criterion not met

Switching to the query record.
Ask | CC50 at 3 days under 20 µM? Item: C[C@@H]1c2ccccc2CCN1C(=O)c1cc(C2CC2)c2nc(-c3ccc(N4C[C@H](O)[C@@H](O)C4)cc3F)oc2n1
Reply | criterion not met

###

Experiment: in vitro
Assay type: cell-based
Conditions: human
Task for the reader: assign each of the following molecules its reported CC50 at 3 days.
Give bare numbers, in µM.

Some molecules with known CC50 at 3 days results, for comparison:
In [3]: df
Out[3]:
                                   molecule   val
0  C[C@@H]1c2ccccc2CCN1C(=O)c1cc(C2CC2)c2nn(-c3ccc(N)cc3F)cc2c1 [Compound 19]  55.2
1  C[C@@H]1c2ccccc2CCN1C(=O)c1cc(C2CC2)c2nc(-c3ccc(C4C[C@@H]4C(N)=O)cc3F)n(C)c2c1 (relative stereo) [Compound 15]  50.4

Lab note: next molecule to report on.
Ask | Report CC50 at 3 days for C[C@@H]1c2ccccc2CCN1C(=O)c1cc(C2CC2)c2sc(-c3ccc(N4C[C@H](O)[C@@H](O)C4)cc3F)nc2n1 [Compound 5] please.
Reply | 33.3
